# MEASUREMENT_TARGET: Protein mono-ADP-ribosyltransferase PARP14 (Homo sapiens)
# ASSAY_METHOD_TEXT: Inhibition of N-terminal His-GST tagged human PARP14 (1470 to 1801 residues) expressed in baculovirus infected Sf9 cells assessed as reduction in NAD+-dependent ADP ribosylation using histone as substrate at 1 uM incubated for 1 hr in presence of biotinylated NAD+ and activated DNA by chemiluminescence based microplate reader assay relative to control
QUANTITY_NAME: inhibition (%)

Below, 8 molecules whose answers are already recorded.
1) CC1(CNC(=O)COc2cccc3c2CCCC3=O)CCN(C(=O)CCc2nc3ccccc3[nH]c2=O)CC1	21
2) O=C(NC[C@@H]1CCCN1C(=O)CCc1nc2ccccc2[nH]c1=O)c1ccc2c(c1)CCCC2=O	0
3) O=C(CCc1nc2ccccc2[nH]c1=O)NCC(=O)N1CCN(C(=O)COc2cccc3c2CCCC3=O)CC1	2
4) O=C1CCCc2cc(C(=O)N3C[C@@H]4C[C@H]3CN4C(=O)CCc3nc4ccccc4[nH]c3=O)ccc21	7
5) O=C(CCc1nc2ccccc2[nH]c1=O)NCC(=O)N1CCN(C(=O)Nc2ccc3c(c2)C(=O)CCC3)CC1	0
6) O=C1CCCc2c(OCC(=O)N3CCN(C(=O)CCc4nc5ccccc5[nH]c4=O)C[C@@H]3CO)cccc21	12
7) O=C(COc1ccc2c(c1)CCCC2=O)NC[C@@H]1CCCN1C(=O)CCc1nc2ccccc2[nH]c1=O	6
8) O=C1CCCc2cc(C(=O)N3CCN(C(=O)CCc4nc5ccccc5[nH]c4=O)C[C@H]3CO)ccc21	0

A = CC[C@H]1CN(C(=O)COc2cccc3c2CCCC3=O)CCN1C(=O)CCc1nc2ccccc2[nH]c1=O
B = O=C(COc1ccc2c(c1)C(=O)CCC2)NC1CCN(C(=O)CCc2nc3ccccc3[nH]c2=O)CC1
Query block: Smaller inhibition value, A vs B ? When you have decided, please share the label of that item.
Result block: A
(A: 17%, B: 27%)
